Values were extracted from paper PMC10663500.

target: T1, human programmed cell death protein 1 (hPD-1) C93S (aa 24-167) (Homo sapiens, UniProt Q15116, C93S); assay: SPR; Carterra LSA; Fab from the ammonium sulfate precipitate of the culture supernatant immobilised on a NiHC200M chip; hPD-1 (1-1024 nM) or mPD-1-Fc (4-1024 nM) as analyte, fourfold dilution series, no regeneration; HBS-EP pH 7.4, 25 °C; medians over the spots of a construct, KD = koff/kon; conditions: one partner purified
T1 construct: made as a fusion with a TEV site and human Fc; the Fc was cut off with TEV protease; source: Expi293F, purified (Protein A, TEV cleavage of Fc, SEC; monomer fractions); not shown: Fc (human), C-terminal, cleaved
T1 sequence (Q15116 24-167 C93S): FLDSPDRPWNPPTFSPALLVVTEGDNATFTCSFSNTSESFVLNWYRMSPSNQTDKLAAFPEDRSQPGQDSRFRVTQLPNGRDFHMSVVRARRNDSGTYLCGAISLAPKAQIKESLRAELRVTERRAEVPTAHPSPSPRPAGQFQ
outcome_measure: koff

Examples from the recorded data:
>  <binder>
toripalimab Fab L.N33A (Fab, V domains shown, as the heavy chain of Sm3; light chain of Sm3 with this change; numbers count from the chain's first residue; source: Brevibacillus, culture supernatant (ammonium sulfate precipitate); not shown: 6xHis, C-terminal, kept; 6xHN, C-terminal, kept) VH: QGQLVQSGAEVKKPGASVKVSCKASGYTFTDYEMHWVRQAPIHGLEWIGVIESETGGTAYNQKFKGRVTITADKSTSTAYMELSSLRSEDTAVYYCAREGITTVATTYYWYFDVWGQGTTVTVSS VL: DVVMTQSPLSLPVTLGQPASISCRSSQSIVHSAGNTYLEWYLQKPGQSPQLLIYKVSNRFSGVPDRFSGSGSGTDFTLKISRVEAEDVGVYYCFQGSHVPLTFGQGTKLEIK

>  <koff>
< 1e-05 s⁻¹

$$$$
>  <binder>
toripalimab Fab L.R24Y (Fab, V domains shown, as the heavy chain of Sm3; light chain of Sm3 with this change; numbers count from the chain's first residue; source: Brevibacillus, culture supernatant (ammonium sulfate precipitate); not shown: 6xHis, C-terminal, kept; 6xHN, C-terminal, kept) VH: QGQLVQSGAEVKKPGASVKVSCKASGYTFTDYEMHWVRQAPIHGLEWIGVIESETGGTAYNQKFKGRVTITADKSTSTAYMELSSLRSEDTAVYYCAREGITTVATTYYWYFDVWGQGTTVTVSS VL: DVVMTQSPLSLPVTLGQPASISCYSSQSIVHSNGNTYLEWYLQKPGQSPQLLIYKVSNRFSGVPDRFSGSGSGTDFTLKISRVEAEDVGVYYCFQGSHVPLTFGQGTKLEIK

>  <koff>
< 1e-05 s⁻¹

$$$$
>  <binder>
toripalimab Fab H.T102A (Fab, V domains shown, heavy chain of Sm3 with this change; numbers count from the chain's first residue; as the light chain of Sm3; source: Brevibacillus, culture supernatant (ammonium sulfate precipitate); not shown: 6xHis, C-terminal, kept; 6xHN, C-terminal, kept) VH: QGQLVQSGAEVKKPGASVKVSCKASGYTFTDYEMHWVRQAPIHGLEWIGVIESETGGTAYNQKFKGRVTITADKSTSTAYMELSSLRSEDTAVYYCAREGIATVATTYYWYFDVWGQGTTVTVSS VL: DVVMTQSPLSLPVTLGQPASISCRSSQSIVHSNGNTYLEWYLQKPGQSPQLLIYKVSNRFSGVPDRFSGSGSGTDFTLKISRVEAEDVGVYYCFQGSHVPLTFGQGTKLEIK

>  <koff>
0.000404 s⁻¹

$$$$
>  <binder>
toripalimab Fab H.G57Y (Fab, V domains shown, heavy chain of Sm3 with this change; numbers count from the chain's first residue; as the light chain of Sm3; source: Brevibacillus, culture supernatant (ammonium sulfate precipitate); not shown: 6xHis, C-terminal, kept; 6xHN, C-terminal, kept) VH: QGQLVQSGAEVKKPGASVKVSCKASGYTFTDYEMHWVRQAPIHGLEWIGVIESETGYTAYNQKFKGRVTITADKSTSTAYMELSSLRSEDTAVYYCAREGITTVATTYYWYFDVWGQGTTVTVSS VL: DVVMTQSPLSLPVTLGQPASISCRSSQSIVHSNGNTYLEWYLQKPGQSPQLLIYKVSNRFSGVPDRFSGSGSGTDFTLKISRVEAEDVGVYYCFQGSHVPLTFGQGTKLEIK

>  <koff>
0.000138 s⁻¹

$$$$
>  <binder>
toripalimab Fab L.K55A (Fab, V domains shown, as the heavy chain of Sm3; light chain of Sm3 with this change; numbers count from the chain's first residue; source: Brevibacillus, culture supernatant (ammonium sulfate precipitate); not shown: 6xHis, C-terminal, kept; 6xHN, C-terminal, kept) VH: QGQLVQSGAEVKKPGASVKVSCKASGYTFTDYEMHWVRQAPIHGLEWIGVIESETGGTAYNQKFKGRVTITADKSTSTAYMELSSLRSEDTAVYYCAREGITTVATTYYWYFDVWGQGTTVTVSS VL: DVVMTQSPLSLPVTLGQPASISCRSSQSIVHSNGNTYLEWYLQKPGQSPQLLIYAVSNRFSGVPDRFSGSGSGTDFTLKISRVEAEDVGVYYCFQGSHVPLTFGQGTKLEIK

>  <koff>
< 1e-05 s⁻¹

$$$$
>  <binder>
toripalimab Fab H.G56Y (Fab, V domains shown, heavy chain of Sm3 with this change; numbers count from the chain's first residue; as the light chain of Sm3; source: Brevibacillus, culture supernatant (ammonium sulfate precipitate); not shown: 6xHis, C-terminal, kept; 6xHN, C-terminal, kept) VH: QGQLVQSGAEVKKPGASVKVSCKASGYTFTDYEMHWVRQAPIHGLEWIGVIESETYGTAYNQKFKGRVTITADKSTSTAYMELSSLRSEDTAVYYCAREGITTVATTYYWYFDVWGQGTTVTVSS VL: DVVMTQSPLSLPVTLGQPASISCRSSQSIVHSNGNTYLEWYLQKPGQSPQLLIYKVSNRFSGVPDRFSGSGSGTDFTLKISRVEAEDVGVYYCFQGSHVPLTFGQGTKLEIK

>  <koff>
< 1e-05 s⁻¹

$$$$

Please report koff for every entry that follows.
1. toripalimab Fab L.V56A (Fab, V domains shown, as the heavy chain of Sm3; light chain of Sm3 with this change; numbers count from the chain's first residue; source: Brevibacillus, culture supernatant (ammonium sulfate precipitate); not shown: 6xHis, C-terminal, kept; 6xHN, C-terminal, kept) VH: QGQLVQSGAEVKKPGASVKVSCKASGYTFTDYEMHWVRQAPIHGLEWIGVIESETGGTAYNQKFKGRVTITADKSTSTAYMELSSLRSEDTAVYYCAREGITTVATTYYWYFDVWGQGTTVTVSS VL: DVVMTQSPLSLPVTLGQPASISCRSSQSIVHSNGNTYLEWYLQKPGQSPQLLIYKASNRFSGVPDRFSGSGSGTDFTLKISRVEAEDVGVYYCFQGSHVPLTFGQGTKLEIK
2. toripalimab Fab L.P100Y (Fab, V domains shown, as the heavy chain of Sm3; light chain of Sm3 with this change; numbers count from the chain's first residue; source: Brevibacillus, culture supernatant (ammonium sulfate precipitate); not shown: 6xHis, C-terminal, kept; 6xHN, C-terminal, kept) VH: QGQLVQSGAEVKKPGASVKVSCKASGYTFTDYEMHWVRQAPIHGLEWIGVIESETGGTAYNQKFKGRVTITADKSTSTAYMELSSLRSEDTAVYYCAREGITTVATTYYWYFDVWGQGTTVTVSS VL: DVVMTQSPLSLPVTLGQPASISCRSSQSIVHSNGNTYLEWYLQKPGQSPQLLIYKVSNRFSGVPDRFSGSGSGTDFTLKISRVEAEDVGVYYCFQGSHVYLTFGQGTKLEIK
3. toripalimab Fab L.N33Y (Fab, V domains shown, as the heavy chain of Sm3; light chain of Sm3 with this change; numbers count from the chain's first residue; source: Brevibacillus, culture supernatant (ammonium sulfate precipitate); not shown: 6xHis, C-terminal, kept; 6xHN, C-terminal, kept) VH: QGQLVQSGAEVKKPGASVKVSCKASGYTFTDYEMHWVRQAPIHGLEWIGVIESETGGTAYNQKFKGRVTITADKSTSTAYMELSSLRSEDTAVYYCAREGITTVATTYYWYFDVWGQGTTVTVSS VL: DVVMTQSPLSLPVTLGQPASISCRSSQSIVHSYGNTYLEWYLQKPGQSPQLLIYKVSNRFSGVPDRFSGSGSGTDFTLKISRVEAEDVGVYYCFQGSHVPLTFGQGTKLEIK
4. toripalimab Fab L.Q95Y (Fab, V domains shown, as the heavy chain of Sm3; light chain of Sm3 with this change; numbers count from the chain's first residue; source: Brevibacillus, culture supernatant (ammonium sulfate precipitate); not shown: 6xHis, C-terminal, kept; 6xHN, C-terminal, kept) VH: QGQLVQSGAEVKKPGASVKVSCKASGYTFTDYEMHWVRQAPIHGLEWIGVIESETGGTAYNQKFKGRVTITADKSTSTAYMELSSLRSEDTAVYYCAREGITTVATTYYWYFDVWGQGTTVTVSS VL: DVVMTQSPLSLPVTLGQPASISCRSSQSIVHSNGNTYLEWYLQKPGQSPQLLIYKVSNRFSGVPDRFSGSGSGTDFTLKISRVEAEDVGVYYCFYGSHVPLTFGQGTKLEIK

< 1e-05 s⁻¹
< 1e-05 s⁻¹
< 1e-05 s⁻¹
0.000734 s⁻¹
